Catalogue of GI50 values
Tested on: SF-268
Assay: NCI tumour cell line growth inhibition, 48 h
Calls of active or inactive are those of the source. Cut-off read from the data, not from the text of the source: active = GI50 up to about 1.1 µM and inactive = higher. Where a SMILES comes first, the peptide text is derived from it. The star is where a group is joined. Boc = CC(C)(C)OC(=O)*

compound: COc1ccc2cc(C(C)C(O)c3cc(F)c(F)c(F)c3F)ccc2c1 (stereo not given)
GI50: 76.4 µM (inactive)
--
compound: COc1ccc(CCNCCCC2c3ccccc3-c3ccccc32)cc1OC
GI50: 15.1 µM (inactive)
--
compound: O=C(NC1C2CC3CC(C2)CC1C3)c1cc(/C=C/c2ccccc2)nc(S)n1 (stereo not given)
GI50: > 100 µM (inactive)
--
compound: COc1cc2cc(C(=O)N3CC(CCl)c4ccccc43)[nH]c2c(OC)c1OC (stereo not given)
GI50: > 100 µM (inactive)
--
compound: CCOC(=O)C1=C(Cl)c2cccnc2C1=O
GI50: 55.2 µM (inactive)
--
compound: C#CCN(C(=O)C(F)(F)F)c1ccc(C(=O)c2ccc(N(CC#C)C(=O)C(F)(F)F)cc2)cc1
GI50: 38.4 µM (inactive)
--
compound: CO[P@@]1(=O)O[C@@H](c2ccccc2)[C@H](O)[C@]1(O)c1ccccc1
GI50: > 100 µM (inactive)
--
compound: CC(=O)OC1OC(c2ccoc2)C[C@@]12C1CCC3O[C@]3(C)[C@]1(C)C[C@H](OC(C)=O)[C@H]2C (stereo not given in full)
GI50: > 75 µM (inactive)
--
compound: Clc1ccc(/C=c2\nc(-c3ccccc3)n3c2nc2ccccc23)cc1
GI50: 34.4 µM (inactive)
--
compound: COC(=O)C1=C(C)N(NC(=O)c2cccc(Cl)c2)C(C)(O)C12CCOC2=O (stereo not given)
GI50: > 100 µM (inactive)
--
compound: Clc1ccc(/N=C/C=C/Nc2ccc(Cl)cn2)nc1
GI50: 16.4 µM (inactive)
--
compound: CC(C)c1ccc2c(c1)CCC1C(C)(CN)CCCC21C (stereo not given)
GI50: 1.65 µM (inactive)
--
compound: C=C1CC2(OC1=O)c1ccccc1C=Cc1ccccc12
GI50: 7.23 µM (inactive)
--
compound: COc1ccccc1NC(=O)C(=O)Cc1cnc2ccccc2n1
GI50: > 100 µM (inactive)
--
compound: COC(=O)C(C(=O)C(=O)Nc1nnc(S)[nH]1)c1csc(N)n1 (stereo not given)
GI50: > 100 µM (inactive)
--
compound: CC(NC(=O)C(NC(=O)OC(C)(C)C)C(C)C)C(=O)NCC(=O)O (stereo not drawn) (Boc-Val-Ala-Gly-OH; configuration not given here)
GI50: > 100 µM (inactive)
--
compound: Cc1c2cc[n+](C)cc2c(C)c2c1[nH]c1ccc(O)cc12 [ELLIPTINIUM ACETATE]
GI50: 0.369 µM (active)
--
compound: Cn1cc(NC(=O)c2cc(NC(=O)CCCCCCCCC(=O)Nc3cc(C(=O)Nc4cc(C(=O)NCCC(N)N)n(C)c4)n(C)c3)cn2C)cc1C(=O)NCCC(=N)N
GI50: 20.5 µM (inactive)
--
compound: CC1(C)Cc2c(c3ccccc3c3nc4c(nc23)c2c(c3ccccc34)OC(C)(C)C2)O1
GI50: > 100 µM (inactive)
--
compound: CC(=O)NCCCCN(CCCNC(C)=O)C(=O)CNS(=O)(=O)c1cccc2c(N(C)C)cccc12
GI50: > 100 µM (inactive)
